test system: methicillin-resistant S. aureus (FPR3757); experiment: MIC against clinical MRSA strain FPR3757 in Mueller-Hinton broth (CLSI); format: cell-based, Staphylococcus aureus; settings: Staphylococcus aureus, MRSA, MRSA clinical strain FPR3757, Mueller-Hinton broth, CLSI guidelines, complete inhibition of observable growth; read-out: MIC
parameter measured: MIC

> print(dat)
                                   compound   obs.value
1  COc1cccc(Nc2cc(C(F)(F)F)nc3cc(C(F)(F)F)ccc23)c1 [Compound 25]  > 64 µg/mL

*Q* Given the compound FC(F)(F)Oc1cccc(Nc2cc(C(F)(F)F)nc3cc(C(F)(F)F)ccc23)c1 [Compound 27] , what is its reported MIC?
*A* 8 µg/mL

*Q* Given the compound FC(F)(F)c1ccc2c(Nc3ccc(N4CCOCC4)cc3)cc(C(F)(F)F)nc2c1 [Compound 30] , what is its reported MIC?
*A* > 16 µg/mL

*Q* Given the compound FC(F)(F)c1ccc2c(N3CCOCC3)cc(C(F)(F)F)nc2c1 [Compound 59] , what is its reported MIC?
*A* > 32 µg/mL

*Q* Given the compound FC(F)(F)Oc1ccc2c(Nc3ccc(C(F)(F)F)cn3)cc(C(F)(F)F)nc2c1 [Compound 34] , what is its reported MIC?
*A* 0.5 to 1 µg/mL

*Q* Given the compound O=c1cc(C(F)(F)F)[nH]c2cc(OC(F)(F)F)ccc12 [Compound 3] , what is its reported MIC?
*A* 4 to 8 µg/mL

---

test system: methicillin-resistant S. aureus (FPR3757); assay: MIC against clinical MRSA strain FPR3757 in Mueller-Hinton broth (CLSI); format: cell-based, Staphylococcus aureus; settings: Staphylococcus aureus, MRSA, MRSA clinical strain FPR3757, Mueller-Hinton broth, CLSI guidelines, complete inhibition of observable growth; read-out: MIC
parameter measured: MIC (µg/mL)
Answer format: numeric, µg/mL implied, no suffix.

Check out these entries, answers already filled in.
> print(dat)
                                   compound                                    target  parameter.measured  obs.value
1  COc1ccc2c(Nc3ccc(Cl)c(Cl)c3)cc(C(F)(F)F)nc2c1 [Compound 35]  methicillin-resistant S. aureus (FPR3757)                 MIC          2
2  FC(F)(F)c1ccc2c(Nc3cc(Cl)ccn3)cc(C(F)(F)F)nc2c1 [Compound 48]  methicillin-resistant S. aureus (FPR3757)                 MIC          2
3  FC(F)(F)c1cccc(Nc2cc(C(F)(F)F)nc3cc(C(F)(F)F)ccc23)c1 [Compound 26]  methicillin-resistant S. aureus (FPR3757)                 MIC       0.25

Let us examine a further case.
*Q* Field: MIC (methicillin-resistant S. aureus (FPR3757)). Entry: CC(C)c1ccccc1Nc1cc(C(F)(F)F)nc2cc(C(F)(F)F)ccc12 [Compound 12]
*A* 320

---

Tested on: methicillin-resistant S. aureus (FPR3757)
Assay: MIC against clinical MRSA strain FPR3757 in Mueller-Hinton broth (CLSI)
Assay type: cell-based, Staphylococcus aureus
Settings: MRSA clinical strain FPR3757, Mueller-Hinton broth, CLSI guidelines, complete inhibition of observable growth
Experimental: The first set of compounds evaluated were analogs at the C-7 and C-8 positions of the initial quinolone hit DNAC-2 since the other HTS hits identified (data not shown) were substituted at these positions (Table 1). Applicants first explored modification at the C-7 position with a small series of electron-donating and withdrawing substituents. […] The C-8 position was evaluated with trifluoromethyl 4 and trifluoromethoxy 5 containing the optimal C-7 substituents. […]
parameter measured: MIC (µg/mL)
Answer format: numeric, µg/mL implied, no suffix.

> print(dat)
                              smiles.string  obs.value
1  FC(F)(F)Oc1ccc2c(Nc3ccc(C(F)(F)F)cn3)cc(C(F)(F)F)nc2c1          1
2  FC(F)(F)c1ccc2c(Nc3ccc(Cl)cc3)cc(C(F)(F)F)nc2c1       0.12
3   O=c1cc(C(F)(F)F)[nH]c2cc(C(F)(F)F)ccc12          5

Let us examine a further case.
*Q* Given the compound O=c1cc(C(F)(F)F)[nH]c2cc(C(F)(F)F)cc(-c3ccc(C(F)(F)F)nn3)c12 , what is its reported MIC?
*A* 1

Recorded values, source patent US20220274927A1.
